target_or_system: human APJ receptor (Homo sapiens (Human), UniProt P35414)
Sequence (P35414 whole entry): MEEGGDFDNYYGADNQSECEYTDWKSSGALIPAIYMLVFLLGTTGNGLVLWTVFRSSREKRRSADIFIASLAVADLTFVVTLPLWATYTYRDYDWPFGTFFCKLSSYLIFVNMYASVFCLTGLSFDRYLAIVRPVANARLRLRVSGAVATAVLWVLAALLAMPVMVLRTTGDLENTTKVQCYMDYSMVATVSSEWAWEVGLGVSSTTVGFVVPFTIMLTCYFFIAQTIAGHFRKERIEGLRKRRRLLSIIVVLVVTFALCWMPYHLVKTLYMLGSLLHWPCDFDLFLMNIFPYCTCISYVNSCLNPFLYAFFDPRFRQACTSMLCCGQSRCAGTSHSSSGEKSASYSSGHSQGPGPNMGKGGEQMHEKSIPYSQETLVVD
measurement_protocol: biochemical
measurement_setup: [35S]GTPγS binding, CHO membranes expressing human APJ receptor; read-out: Activity hAPJ SPA EC50 IP
log10 EC50 values for the compounds below.
result_type: log10 EC50 (log10 of the value in nM)

1. COc1ncnc(OC)c1-n1c(NS(=O)(=O)[C@@H](C)[C@H](OC)c2ncc(Cl)cn2)nnc1-c1cnn2ccccc12 [Example 439.0] | -0.09
2. COc1cccc(OC)c1-n1c(NS(=O)(=O)[C@@H](C)[C@H](C)c2ncc(C)cn2)nnc1-c1ccn(C(F)F)n1 [Example 198.0] | -0.70
3. COc1cccc(OC)c1-n1c(NS(=O)(=O)[C@@H](C)[C@H](C)c2ncc(F)cn2)nnc1-c1nc(C)cs1 (single isomer, unassigned) [Example 120.0] | -0.77
4. COc1cccc(OC)c1-n1c(NS(=O)(=O)[C@H](C)Cc2ncc(F)cn2)nnc1-c1ccncn1 (single isomer, unassigned) [Example 38.0] | 1.92
5. COc1cccc(OC)c1-n1c(NS(=O)(=O)[C@H](C)Cc2ccc(C#N)cn2)nnc1-c1nc(C)cs1 (single isomer, unassigned) [Example 12.0] | 0.97
6. CNC(=O)n1ccc(-c2nnc(NS(=O)(=O)[C@@H](C)Cc3ncc(F)cn3)n2-c2c(OC)cccc2OC)n1 (single isomer, unassigned) [Example 73.0] | 1.46
